- systemUnderTest: CXCR4 receptors (Homo sapiens, UniProt P61073)
- Construct: expressing endogenous CXCR4 receptors; endogenous in cells
- Sequence (P61073 whole entry): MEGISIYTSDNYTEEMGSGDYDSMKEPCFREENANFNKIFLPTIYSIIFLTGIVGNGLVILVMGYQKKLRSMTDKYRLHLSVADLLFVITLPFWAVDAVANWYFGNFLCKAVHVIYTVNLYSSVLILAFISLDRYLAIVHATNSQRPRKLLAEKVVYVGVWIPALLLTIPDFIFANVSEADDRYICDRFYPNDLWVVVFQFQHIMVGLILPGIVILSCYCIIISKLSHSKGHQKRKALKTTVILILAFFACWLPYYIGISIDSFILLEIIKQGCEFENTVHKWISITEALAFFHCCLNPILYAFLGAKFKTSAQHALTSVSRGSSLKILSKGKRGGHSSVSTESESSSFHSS
- experimentDescription: CXCR4-CEM calcium flux assay, antagonist mode (inhibition of SDF-1α-induced calcium flux)
- appliedConditions: inhibition of calcium flux induced by 4 nM SDF-1α in CCRF-CEM cells
valueKind: IC50 (nM)

molecule | systemUnderTest | op | observedMeasurement
CN(Cc1cn2c(N3CCN(CCc4ccc(O)cc4)CC3)nccc2n1)[C@H]1CCCc2cccnc21 | CXCR4 receptors (Homo sapiens, UniProt P61073) | = | 33
CN(Cc1cn2c(N3CCNC(c4ccccc4)C3)nccc2n1)[C@H]1CCCc2cccnc21 (single isomer, unassigned) [Example 79] | CXCR4 receptors (Homo sapiens, UniProt P61073) | = | 56
CN(Cc1cn2c(N3CCN(CCO)CC3)nccc2n1)[C@H]1CCCc2cccnc21 | CXCR4 receptors (Homo sapiens, UniProt P61073) | = | 13
CC(C)N1CCN(c2nccc3nc(CN(C)[C@H]4CCCc5cccnc54)cn23)CC1 | CXCR4 receptors (Homo sapiens, UniProt P61073) | = | 9.6
CN(Cc1cn2c(N3CCN(CCc4ccccc4)CC3)nccc2n1)[C@H]1CCCc2cccnc21 | CXCR4 receptors (Homo sapiens, UniProt P61073) | = | 14
CN(Cc1cn2c(N3CCN4CCOCC4C3)nccc2n1)[C@H]1CCCc2cccnc21 (single isomer, unassigned) [Example 91] | CXCR4 receptors (Homo sapiens, UniProt P61073) | > | 30000
CN(Cc1cn2c(N3CCN(Cc4cccc(Oc5ccccc5)c4)CC3)nccc2n1)[C@H]1CCCc2cccnc21 | CXCR4 receptors (Homo sapiens, UniProt P61073) | = | 28

====

# pIC50 values compiled below
- systemUnderTest: CXCR4 receptors (Homo sapiens, UniProt P61073)
- Construct: expressing endogenous CXCR4 receptors; endogenous in cells
- experimentDescription: CXCR4-CEM calcium flux assay, antagonist mode (inhibition of SDF-1α-induced calcium flux)
- appliedConditions: inhibition of calcium flux induced by 4 nM SDF-1α in CCRF-CEM cells
pIC50: −log10 of the molar value.

compound | pIC50
CN(Cc1cn2c(N3CCN4CCOCC4C3)nccc2n1)[C@H]1CCCc2cccnc21 (single isomer, unassigned) [Example 92] | 6.54
CN(Cc1cn2c(N3CC4CCNC4C3)nccc2n1)[C@H]1CCCc2cccnc21 (stereo partly shown) [Example 93] | 7.57
CN(Cc1cn2c(N3CCN(CC4CCCC4)CC3)nccc2n1)[C@H]1CCCc2cccnc21 | 6.77
CN(Cc1cn2c(N3CCN(CCCc4ccccc4)CC3)nccc2n1)[C@H]1CCCc2cccnc21 | 6.92

====

- systemUnderTest: CXCR4 receptors (Homo sapiens, UniProt P61073)
- Construct: expressing endogenous CXCR4 receptors; endogenous in cells
- experimentDescription: CXCR4-CEM calcium flux assay, antagonist mode (inhibition of SDF-1α-induced calcium flux)
- appliedConditions: inhibition of calcium flux induced by 4 nM SDF-1α in CCRF-CEM cells

compound | systemUnderTest | IC50 (nM)
CN(Cc1cn2c(N3CCN[C@H](CO)C3)nccc2n1)[C@H]1CCCc2cccnc21 [Example 86] | CXCR4 receptors (Homo sapiens, UniProt P61073) | 1.7
CN(Cc1cn2c(N3CCN(Cc4ccccc4O)CC3)nccc2n1)[C@H]1CCCc2cccnc21 [Example 59] | CXCR4 receptors (Homo sapiens, UniProt P61073) | 25
CN(Cc1cn2c(N3CCN(Cc4cccc(C#N)c4)CC3)nccc2n1)[C@H]1CCCc2cccnc21 [Example 66] | CXCR4 receptors (Homo sapiens, UniProt P61073) | 9.4
Cc1ccc(CN2CCN(c3nccc4nc(CN(C)[C@H]5CCCc6cccnc65)cn34)CC2)cc1 [Example 53] | CXCR4 receptors (Homo sapiens, UniProt P61073) | 17
